Target: BACE1 endogenous to primary cortical neurons from E16.5 CD1 mice (mouse, UniProt P56818 46-501)
Sequence (P56818 46-501): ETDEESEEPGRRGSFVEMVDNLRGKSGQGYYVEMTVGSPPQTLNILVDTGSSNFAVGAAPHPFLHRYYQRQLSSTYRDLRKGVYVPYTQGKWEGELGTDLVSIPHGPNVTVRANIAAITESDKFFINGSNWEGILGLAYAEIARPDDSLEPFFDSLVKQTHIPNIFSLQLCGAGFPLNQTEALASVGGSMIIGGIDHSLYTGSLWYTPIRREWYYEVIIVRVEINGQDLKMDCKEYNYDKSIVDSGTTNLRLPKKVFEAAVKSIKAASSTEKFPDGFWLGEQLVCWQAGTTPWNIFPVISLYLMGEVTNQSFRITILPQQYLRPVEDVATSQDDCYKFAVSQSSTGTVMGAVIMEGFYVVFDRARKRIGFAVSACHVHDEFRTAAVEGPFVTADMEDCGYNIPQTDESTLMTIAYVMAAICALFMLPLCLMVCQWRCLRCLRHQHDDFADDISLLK
Assay: cell-based or functional assay
Each record here notes measured max % inhibition, Abeta x-40 in mouse cortical neurons.
Answer with a number only, understood to be in %.

Query: Give a short answer stating reported max % inhibition, Abeta x-40 in mouse cortical neurons for 5930 (antibody, V domains shown) VH: QVQLVQSGAEVKKPGSSVKVSCKASGGTLSGYAISWVRQAPGQGLEWMGNIIPGFGTANYAQKSQGRVTITADESTSTAYMELSSLRSEDTAVYYCARSGGTRYGMLDVWGQGTMVTVSS VL: EIVMTQSPATLSVSPGERATLSCRASQSVGSNLAWYQQKPGQAPRLLIYGASTRATGIPARFSGSGSGTEFTLTISSLQSEDFAVYYCQQLYTWPPRTFGGGTKVEIK .
Reply: 74

Query: Please supply the value of reported max % inhibition, Abeta x-40 in mouse cortical neurons for the item 6279 (antibody, V domains shown) VH: QVQLVQSGAEVKKPGSSVKVSCKASGGTFRGYAISWVRQAPGQGLEWMGNIIPGFGTANYAQKFQGRVTITADESTSTAYMELSSLRSEDTAVYYCARSGGTKYGMLDVWGQGTMVTVSS VL: EIVMTQSPATLSVSPGERATLSCRASQSVSSNLAWYQQKPGQAPRLLIYGASTRATGIPARFSGSGSGTEFTLTISSLQSEDFAVYYCQQLLLWPPRTFGGGTKVEIK
Reply: 71
